target: T1, murine BACE1 ECD; test: Octet, pH 7.5;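 note: antibodies captured on anti-human capture biosensor tips, dissociation followed in PBS with BSA buffer, kinetics fitted with a one-to-one binding model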
T1 construct: analyte of the Octet assay (200 nM) and enzyme of the first short substrate assay
T1 sequence (single chain, as listed by the source limits assumed): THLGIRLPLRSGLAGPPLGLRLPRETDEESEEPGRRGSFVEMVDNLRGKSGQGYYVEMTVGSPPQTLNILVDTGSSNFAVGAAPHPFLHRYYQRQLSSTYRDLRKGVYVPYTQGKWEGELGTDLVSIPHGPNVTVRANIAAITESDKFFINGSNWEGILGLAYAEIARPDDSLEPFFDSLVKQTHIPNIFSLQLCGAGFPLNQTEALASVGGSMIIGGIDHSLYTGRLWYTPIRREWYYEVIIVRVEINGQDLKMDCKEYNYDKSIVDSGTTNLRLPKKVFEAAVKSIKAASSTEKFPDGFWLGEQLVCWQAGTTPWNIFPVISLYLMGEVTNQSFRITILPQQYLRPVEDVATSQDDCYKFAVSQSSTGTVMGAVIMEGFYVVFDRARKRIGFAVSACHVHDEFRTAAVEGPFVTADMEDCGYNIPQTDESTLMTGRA
pKd reference
Hey, just a heads up that pKd is the negative log base 10 of the concentration in molar.

Consider the following illustrative entries.
5571 (antibody, V domains shown, anti-BACE1 IgG) VH: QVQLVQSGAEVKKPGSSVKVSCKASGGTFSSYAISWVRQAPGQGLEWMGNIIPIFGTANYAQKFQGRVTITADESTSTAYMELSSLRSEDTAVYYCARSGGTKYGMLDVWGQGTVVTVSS VL: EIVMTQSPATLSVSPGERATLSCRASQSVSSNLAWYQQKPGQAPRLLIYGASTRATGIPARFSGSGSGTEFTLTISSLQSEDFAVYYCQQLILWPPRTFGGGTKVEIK = 8.27
5874 (antibody, V domains shown, anti-BACE1 IgG) VH: EVQLLESGGGLVQPGGSLRLSCAASGFTFGSYAMSWVRQAPGKGLEWVSATSGSGGSTYYADSVKGRFTISRDNSKNTLYLQMDSLRAEDTAVYYCAKGGSQWLYAPGSWFDPWGQGTLVTVSS VL: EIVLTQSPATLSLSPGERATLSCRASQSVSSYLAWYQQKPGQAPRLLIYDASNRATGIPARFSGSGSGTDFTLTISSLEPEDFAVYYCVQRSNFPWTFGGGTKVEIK = 7.66

Lab note: next binder to report on.
Query 5883 (antibody, V domains shown, anti-BACE1 IgG) VH: QVQLVQSGAEVKKPGSSVKVSCKASGGTFSSYAISWVRQAPGQGLEWMGGIIPIGGGANYAQKFQGRVTITADESTSTAYMELSSLRSEDTAVYYCARSGGTKYGMLDVWGQGTMVTVSS VL: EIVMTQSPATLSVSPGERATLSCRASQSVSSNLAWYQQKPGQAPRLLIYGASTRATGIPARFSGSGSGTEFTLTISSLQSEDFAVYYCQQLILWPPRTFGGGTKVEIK yields pKd of 8.18

// data source = patent US20180057604A1
